Hi there, I'd appreciate the recorded pIC50 for every entry that follows.
targetEntity: beta-catenin/TCF4 engagement (Homo sapiens, UniProt P35222)
Construct: expressed in transfected cells; host or cells: HEK293
protocolText: Nano-BRET target engagement assay (B-cat-Halo & TCF4-Luc in HEK293 cells)
Assay type: cell-based
setupConditions: absolute IC50; read-out: NanoBRET Abs IC50
Numbers only, as −log10 of the molar value.

compound: CC(=O)N1CCC[C@]12CC=CCCCC1(CCCC=CCCCOC(=O)N3CC[C@@](C(=O)N[C@@H](Cc4ccsc4)C(=O)N[C@@H](Cc4csc5ccccc45)C(=O)N[C@@H](CCC(N)=O)C(N)=O)(C3)NC(=O)[C@H]([C@@H](C)O)NC(=O)[C@H](Cc3ccccc3)NC(=O)[C@H](C)NC(=O)[C@H](C)NC(=O)[C@H]([C@@H](C)O)NC(=O)[C@H](CC(=O)O)NC1=O)NC(=O)[C@H](CC1CCCCC1)NC(=O)[C@H](CC(=O)O)NC2=O (stereo partly drawn)
readoutType: pIC50
measuredResult: 4.76

Consider now this further compound.
Entry CC(=O)N1CCC[C@]12CC=CCCCC1(CCCC=CCCCOC(=O)N3CC[C@@](C(=O)N[C@@H](Cc4ccccc4Cl)C(=O)N[C@@H](Cc4csc5ccccc45)C(=O)N[C@@H](CCC(N)=O)C(N)=O)(C3)NC(=O)[C@H](CC(N)=O)NC(=O)[C@H](Cc3ccccc3)NC(=O)[C@H](C)NC(=O)[C@H](CCCCNC(C)C)NC(=O)[C@H](CC(=O)O)NC(=O)[C@H](CC(=O)O)NC1=O)NC(=O)[C@H](CC(C)(C)C)NC(=O)[C@H](CC(=O)O)NC2=O (stereo partly drawn) — recorded pIC50 = 4.73

----------
targetEntity: full-length beta-Catenin (Uniprot ID P35222) (Homo sapiens, UniProt P35222)
Construct: 10 nM full-length beta-Catenin (Uniprot ID P35222)
Sequence (P35222 1-781): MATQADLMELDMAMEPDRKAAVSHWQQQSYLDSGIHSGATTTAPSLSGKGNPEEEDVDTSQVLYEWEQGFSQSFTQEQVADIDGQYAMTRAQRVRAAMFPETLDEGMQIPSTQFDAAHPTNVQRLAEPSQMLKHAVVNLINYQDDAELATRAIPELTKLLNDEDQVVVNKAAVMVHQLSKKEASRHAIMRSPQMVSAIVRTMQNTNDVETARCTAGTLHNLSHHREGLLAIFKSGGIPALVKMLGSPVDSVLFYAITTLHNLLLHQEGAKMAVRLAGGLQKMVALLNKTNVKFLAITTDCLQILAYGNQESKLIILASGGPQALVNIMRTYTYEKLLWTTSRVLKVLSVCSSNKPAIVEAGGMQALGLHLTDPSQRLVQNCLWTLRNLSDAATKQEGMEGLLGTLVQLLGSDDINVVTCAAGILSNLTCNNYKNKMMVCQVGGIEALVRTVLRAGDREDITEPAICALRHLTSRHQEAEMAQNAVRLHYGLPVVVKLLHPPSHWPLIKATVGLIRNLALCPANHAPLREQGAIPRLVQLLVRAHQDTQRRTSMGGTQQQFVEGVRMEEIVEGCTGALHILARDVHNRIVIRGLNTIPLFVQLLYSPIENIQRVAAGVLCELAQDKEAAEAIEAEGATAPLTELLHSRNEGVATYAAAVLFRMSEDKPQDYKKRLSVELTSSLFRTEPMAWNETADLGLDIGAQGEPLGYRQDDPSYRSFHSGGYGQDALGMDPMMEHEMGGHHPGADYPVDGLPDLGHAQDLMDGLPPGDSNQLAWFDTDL
protocolText: Fluorescence polarization IC50 (beta-catenin / 5FAM-TCF4 10-53 competition)
Format: binding
setupConditions: read-out: FP EC50
Could you please report measured pIC50 for the items listed next?
Numbers only, as −log10 of the molar value.

molecule: CC(=O)N1CCC[C@]12CC=CCCCC1(CCCC=CCCCCCC[C@@](C)(C(=O)N[C@@H](Cc3ccccc3)C(=O)N[C@@H](Cc3csc4ccccc34)C(=O)N[C@@H](CCC(N)=O)C(N)=O)NC(=O)[C@H](CCC(N)=O)NC(=O)[C@H](Cc3ccccc3)NC(=O)[C@H](C)NC(=O)[C@H](C)NC(=O)[C@H](CCC(=O)O)NC(=O)[C@H](CC(=O)O)NC1=O)NC(=O)[C@H](CC(F)(F)F)NC(=O)[C@H](CC(=O)O)NC2=O (some centres unmarked) [I-502]
readoutType: pIC50
measuredResult: 7.26

Switching to the query record.
GET /value?item= CC[C@H](C)[C@@H]1NC(=O)[C@H](CC(=O)O)NC(=O)[C@]2(CC=CCCCC3(CCCC=CCCCCCC[C@@](C)(C(=O)N[C@@H](Cc4ccccc4OC)C(=O)N[C@@H](Cc4csc5ccccc45)C(=O)N[C@@H](CCC(N)=O)C(N)=O)NC(=O)[C@H](CC(N)=O)NC(=O)[C@H](Cc4ccccc4)NC(=O)[C@H](C)NC(=O)[C@H](C)NC(=O)[C@H](CC(=O)O)NC(=O)[C@H](CC(=O)O)NC3=O)NC1=O)CCCN2C(C)=O (some centres unmarked) [I-550] &field=pIC50 returns 7.52
